TARGET UNDER TEST: GNAS; note: test concentration or dose not given here
CONDITION SET: ASO
These antisense oligonucleotides have a phosphorothioate backbone; sugars and methylation of C are not fully specified.
// NB: equality with 0.6 counts as not satisfied; only remaining target (mRNA or protein) (fraction of control) strictly below is satisfied

Please let me know if `GTGAAATGAGGGTAGCAGTA` shows remaining target (mRNA or protein) (fraction of control) below 0.6.
not satisfied

Please let me know if `TTCATTTGTTTCTTTTATTT` shows remaining target (mRNA or protein) (fraction of control) below 0.6.
not satisfied

Please let me know if `GCAGGTGAAATGAGGGTAGC` shows remaining target (mRNA or protein) (fraction of control) below 0.6.
not satisfied

Please let me know if `TATTTCATTTGTTTATTTTA` shows remaining target (mRNA or protein) (fraction of control) below 0.6.
not satisfied

Please let me know if `ACTGAAAGTGAGAGGGAACT` shows remaining target (mRNA or protein) (fraction of control) below 0.6.
not satisfied

Please let me know if `ACACACGGCGGATGTTCTCA` shows remaining target (mRNA or protein) (fraction of control) below 0.6.
satisfied

Please let me know if `TTGTTTCTTTTATTTCATTT` shows remaining target (mRNA or protein) (fraction of control) below 0.6.
not satisfied

Please let me know if `GGTTCCCTTCTTAGAGCAGC` shows remaining target (mRNA or protein) (fraction of control) below 0.6.
not satisfied

Please let me know if `TCTTTTATTTCATTTTATTT` shows remaining target (mRNA or protein) (fraction of control) below 0.6.
not satisfied

Please let me know if `GGTTGCCTTCTCACTGTCTC` shows remaining target (mRNA or protein) (fraction of control) below 0.6.
satisfied

Please let me know if `TGAGAGGGAACTTTTGTGGC` shows remaining target (mRNA or protein) (fraction of control) below 0.6.
not satisfied

Please let me know if `CTGAATGATGTCACGGCAGT` shows remaining target (mRNA or protein) (fraction of control) below 0.6.
not satisfied
